Test system: SK-MEL-2 melanoma
Assay: NCI tumour cell line growth inhibition, 48 h
Measured endpoint: TGI

1) Cc1cccc(-n2c(=S)[nH]c3c(sc(=O)n3-c3ccccc3C)c2=O)c1 : > 100 µM
2) CCc1c(CNc2ccc(C(=O)NC(CC(=O)O)C(=O)O)cc2)ccc2nc(N)nc(N)c12 (stereo not given) : > 1000 µM
3) O=C(O)C1CCCCC1C(=O)O.[NH-]C1CCC1.[NH2-].[Pt+2] (stereo not given) : > 100 µM
4) CCC(O)(Cc1ccc(OC)cc1)c1ccc(OC)cc1 (stereo not given) : > 100 µM
5) Cc1cc(C)c(S(=O)(=O)N(CCCN)OCCCON(CCCN)S(=O)(=O)c2c(C)cc(C)cc2C)c(C)c1 : 3.29 µM
6) Cc1ccc2nc(-c3ccc(N(C)C)c(Br)c3)cn2c1 : > 100 µM
7) CN1C(=O)N(C)C2C1NN=c1s/c(=C\c3ccc(F)cc3)c(=O)n12 (stereo not given) : > 100 µM
8) Cc1cc(S(=O)(=O)NC#N)c(S/C(=N\Nc2ccc([N+](=O)[O-])cc2)c2ccc(Cl)cc2)cc1Cl : > 100 µM
9) C1=C2C3=[N+](CCCCC3)CC2Cc2ccsc21 (stereo not given) : > 100 µM
10) CC(=O)NC(CCCCNC(=O)NCCCl)C(=O)NCc1ccccc1 (stereo not given) : > 100 µM

====

Test system: A498 renal
Experiment: NCI tumour cell line growth inhibition, 48 h
Measured endpoint: GI50

1. COc1ccc(Cn2cc3c(c2)-c2oncc2CC3)cc1 : 1.74 µM
2. C=C1C(=O)O[C@H]2[C@H]1CC/C(COC(=O)c1cc3cc(Cl)ccc3[nH]1)=C\CC[C@@]1(C)O[C@@H]21 : 2.65 µM
3. COc1cc2c(=O)n(CCN)c3c4cc5c(cc4ccc3c2cc1OC)OCO5 : 1.24 µM
4. CCOc1cccc(/C=N/NC(=O)C(=O)Nc2cccc(C(F)(F)F)c2)c1O : 8.85 µM
5. Cc1cc2c(cc1Cl)SC1=NN(C)C(N(C)C)N1S2(=O)=O (stereo unspecified) : 63.4 µM
6. O=C1c2cc(Cl)ccc2-c2c1c1ccc([N+](=O)[O-])cc1c(=O)n2CCCBr : 24.2 µM

====

System: HCT-116 colon
Assay: NCI tumour cell line growth inhibition, 48 h
The entries below are paired with their reported TGI.
Measured endpoint: TGI

1) COc1ccc(OC2OC(CO)C(OCc3ccccc3)C(OCc3ccccc3)C2OCc2ccccc2)cc1 (stereo not given) : > 100 µM
2) COC(=O)C(CC(=O)Nc1ccc(C)cc1)C(=O)C(=O)Nc1ccccc1C(C)C (stereo not given) : > 100 µM
3) C/C(Cl)=N\OC(=O)Nc1ccc(C)cc1 : 38.6 µM
4) Nc1ccccc1C#C/C=C\C#Cc1ccccc1 : 28.6 µM
5) O=c1cccc(C2CC(CO)C3CCCCN3C2)[nH]1 (stereo not given) : > 100 µM
6) CC[C@]1(O)C(=O)OCc2c1cc1n(c2=O)Cc2cc3c(N)cccc3nc2-1 : > 100 µM
7) N#C/C(=C/n1c(=S)[nH]c2ccc([N+](=O)[O-])cc21)C(N)=O : > 100 µM
8) CSC(SC)=C(C(=O)O)P(=O)(O)O : > 100 µM
9) Cc1cc2c(cc1C)N(C(=O)CCl)CCN2C(=O)CCl : 0.409 µM
10) Nc1nc(Cl)cc(NCC2(O)CC2)n1 : > 100 µM
11) COc1ccccc1/C=C/C(=O)c1ccccc1 : 12.8 µM
12) O=C(N/N=C(/CCN1CCCC1)CC(c1ccccc1)c1c(O)c2ccccc2oc1=O)c1ccncc1 (stereo not given) : > 100 µM
13) O=C(/C=C/C(=O)N1CCCC1)N1CCCC1 : > 100 µM
14) NC(=O)c1csc(C2(O)COC(CO)C2O)n1 (stereo not given) : > 100 µM
15) C/C(=N\N(c1ccccc1)c1ccccc1)c1c(O)cc(C)oc1=O : > 100 µM
